Test system: MDA-MB231 (TNBC cell line)
Assay: MTT cell viability assay, MDA-MB231
Format: cell-based
Settings: Homo sapiens, MDA-MB-231, 72 h, read-out: IC50 ± SD, MDA-MB231
We label by threshold. Values of IC50 strictly beneath 2 µM are t. Values of 2 µM and up are f.

compound="Cc1ccc(-c2csc3ncnc(N/N=C/c4ccc(Br)cc4O)c23)cc1 [TPH104m]" answer_label=t
compound="Oc1ccccc1/C=N/Nc1ncnc2scc(-c3ccccc3)c12 [TPH104j]" answer_label=t
compound="Oc1ccccc1/C=N/Nc1ncnc2scc(-c3ccc(Cl)cc3)c12 [TPH104a]" answer_label=t
compound="COc1ccccc1/C=N/Nc1ncnc2scc(-c3ccccc3)c12 [TPH104f]" answer_label=f
compound="COc1cc(OC)c(OC)cc1/C=N/Nc1ncnc2scc(-c3ccccc3)c12 [TPH104e]" answer_label=f
compound="COc1cc(/C=N/Nc2ncnc3scc(-c4ccccc4)c23)ccc1O [TPH104q]" answer_label=f
compound="Cc1ccc(-c2csc3ncnc(N/N=C/c4ccc(C)cc4O)c23)cc1 [TPH104o]" answer_label=t
compound="Oc1ccc(/C=N/Nc2ncnc3scc(-c4ccccc4)c23)c(O)c1 [TPH104l]" answer_label=t
compound="Cc1ccc(-c2csc3ncnc(N/N=C/c4ccccc4O)c23)cc1 [TPH104d]" answer_label=f
compound="COc1cccc(/C=N/Nc2ncnc3scc(-c4ccccc4)c23)c1OC [TPH104h]" answer_label=f
compound="CCOc1cc(/C=N/Nc2ncnc3scc(-c4ccccc4)c23)ccc1O [TPH104n]" answer_label=f
compound="Oc1cc(Br)ccc1/C=N/Nc1ncnc2scc(-c3ccccc3)c12 [TPH104k]" answer_label=t
compound="COc1ccc(/C=N/Nc2ncnc3scc(-c4ccc(C)cc4)c23)c(OC)c1OC [TPH104g]" answer_label=f
compound="COc1ccc(O)c(/C=N/Nc2ncnc3scc(-c4ccc(C)cc4)c23)c1 [TPH104]" answer_label=t
compound="COc1ccc(/C=N/Nc2ncnc3scc(-c4ccccc4)c23)c(OC)c1 [TPH104i]" answer_label=f
compound="COc1cc(OC)c(OC)cc1/C=N/Nc1ncnc2scc(-c3ccc(Cl)cc3)c12 [TPH104p]" answer_label=f
compound="COc1cccc(/C=N/Nc2ncnc3scc(-c4ccccc4)c23)c1O [TPH104c]" answer_label=t
compound="Oc1c(/C=N/Nc2ncnc3scc(-c4ccccc4)c23)cc2c3c1CCCN3CCC2 [TPH104b]" answer_label=t
